Experiment: in vivo
Condition set: ICR, mouse, po, 10 mg/kg
Observable: AUC(0-inf) (ng·h/mL)
Supply the numeric figure in ng·h/mL, leaving out any unit text.

# compound CN(c1ncnc2[nH]ccc12)[C@@H]1CCN(C(=O)CC#N)C1 ; its AUC(0-inf) = 2100

###

Experiment: in vivo
Condition set: Sprague-Dawley, rat, po, 10 mg/kg
Observable: Cmax
# number then unit; no other words

The molecule listed as CN(c1ncnc2[nH]ccc12)[C@@H]1CCN(C(=O)CC#N)C1 has a reported Cmax of 1900 ng/mL

###

The reader will find reported remaining at 0.5 h values listed item by item below.
Experiment: in vitro
Condition set: rat, microsomes
Description: Metabolic stability in rat liver microsomes assessed as parent compound remaining after 30 mins
Output spec: scalar in %, unitless text.

Some compounds with recorded remaining at 0.5 h:
# Smiles entry, Unit symbol, remaining at 0.5 h
rows = [
    ("CN(c1ncnc2[nH]ccc12)[C@@H]1CCN(S(=O)(=O)c2ccc(C(F)(F)F)cc2)C1", "%", 11.4),
    ("CN(c1ncnc2[nH]ccc12)[C@@H]1CCN(C(=O)CC#N)C1", "%", 92.8),
    ("CN(c1ncnc2[nH]ccc12)[C@@H]1CCN(S(=O)(=O)c2cccc(C#N)c2)C1", "%", 3.7),
]

Now examine the next entry.
// field: remaining at 0.5 h; key: CN(c1ncnc2[nH]ccc12)[C@@H]1CCN(S(=O)(=O)c2cccc([N+](=O)[O-])c2)C1 ; value = 2.5
